Reference source for all entries: PubChem BioAssay AID1159537

# METHOD NOTES: compounds raising algal triacylglycerol storage – qHTS, Chlamydomonas reinhardtii, primary screen (AID 1159537);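 further: hits raise Nile Red signal meaning more stored TAG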
# EXPERIMENTAL CONDITIONS: Chlamydomonas reinhardtii TAG, Nile Red fluorescence, 72 h; screened at 10 µM (by protocol)
Screen size: about 44,000 compounds; about 370 (0.84%) were called active. How the calls were made is not given here. The entries come from a sample that favours actives as a whole.
Write down one outcome, taken from Y for active, N for inactive

Q. Record request — test call for `Cc1ccc(C(C)C)cc1OCCN1CCCC1`
A. N

Q. Record request — test call for `O=C(NCCCN1CCOCC1)c1ccccc1Br`
A. N

Q. Record request — test call for `NC(N)=NS(=O)(=O)c1ccc(NC(=O)c2ccc([N+](=O)[O-])cc2)cc1`
A. N

Q. Record request — test call for `O=C(Nc1ccccc1)Nc1ccccc1C(=O)N1CCOCC1`
A. Y

Q. Record request — test call for `O=C(Nc1cccc(Cl)c1Cl)c1ccc(I)o1`
A. N

Q. Record request — test call for `O=S(=O)(NCCN1CCOCC1)c1ccc(I)cc1`
A. N

Q. Record request — test call for `Cc1cc(C)nc(NS(=O)(=O)c2ccc(N/C=C\C(=O)c3cccs3)cc2)n1`
A. N

Q. Record request — test call for `Cc1cc(C)c(S(=O)(=O)NCCCN2CCOCC2)cc1Br`
A. Y

Q. Record request — test call for `CC(=O)c1ccc(NC(=O)COc2ccc(Br)c(C)c2)cc1`
A. N

Q. Record request — test call for `C=CCn1c(=O)c(C2=NS(=O)(=O)c3ccccc3N2)c(O)c2ccccc21`
A. N

Q. Record request — test call for `CCOc1ccccc1NC1=NS(=O)(=O)c2ccccc21`
A. N

Q. Record request — test call for O=C1CC(NCCc2ccccc2)C(=O)N1c1ccc(F)cc1 (centres undefined)
A. N

Q. Record request — test call for `CN(C)CCCn1cnc2ccccc21`
A. N

Q. Record request — test call for `CCN(CC)CCC(=O)c1ccc(C(C)C)cc1`
A. N

Q. Record request — test call for `CC1(C)CC(=O)c2cnc3cc(-c4ccccc4)nn3c2C1`
A. N

Q. Record request — test call for O=C1CC(N2CCc3ccccc3C2)C(=O)N1c1ccc([N+](=O)[O-])cc1 (centres undefined)
A. Y

Q. Record request — test call for `Cc1ccc(C(=O)c2ccc(N3CCN(C)CC3)c([N+](=O)[O-])c2)cc1`
A. Y

Q. Record request — test call for `Cc1cc(OCCN2CCN(C)CC2)ccc1C(C)C`
A. Y

Q. Record request — test call for `COc1c(S(=O)(=O)NCc2ccncc2)ccc(Cl)c1Cl`
A. N

Q. Record request — test call for `CC1CCN(c2ccc(C(=O)O)cc2[N+](=O)[O-])CC1`
A. N

Q. Record request — test call for `Cc1cc(OCCN2CCOCC2)nc(NCc2ccccc2)n1`
A. N

Q. Record request — test call for CS(=O)(=O)N1CCN(c2ccc(C(=O)NC3C4CC5CC(C4)CC3C5)cc2[N+](=O)[O-])CC1 (centres undefined)
A. N

Q. Record request — test call for O=C1CC(N2CCN(c3ccc([N+](=O)[O-])cc3)CC2)C(=O)N1c1cccc(Cl)c1 (centres undefined)
A. N

Q. Record request — test call for `COc1cccc(NC(=O)Nc2nnc(-c3cccc(OC)c3)s2)c1`
A. N

* * *

# METHOD NOTES: compounds raising algal triacylglycerol storage – qHTS, Chlamydomonas reinhardtii, primary screen (AID 1159537);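 further: hits raise Nile Red signal meaning more stored TAG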
# EXPERIMENTAL CONDITIONS: Chlamydomonas reinhardtii TAG, Nile Red fluorescence, 72 h; screened at 10 µM (by protocol)
The whole screen tested about 44,000 compounds, of which about 370 (0.84%) were called active. How the calls were made is not given here. This excerpt belongs to a sample that is enriched for actives.
Write down one outcome, taken from active, inactive

Q. Record request — test call for `Clc1ccc(OCCOCCN2CCCC2)c(Br)c1`
A. active

Q. Record request — test call for `O=C(COc1ccc(F)cc1)NCc1ccco1`
A. inactive

Q. Record request — test call for `Clc1ccccc1OCCCCN1CCOCC1`
A. active

Q. Record request — test call for `COc1ccc(C(=O)NCCCN2CCOCC2)cc1Br`
A. inactive

Q. Record request — test call for `CCc1ccc(OCC(=O)Nc2ccc(F)cc2)cc1`
A. inactive

Q. Record request — test call for `O=C(COc1ccc(Br)cc1Cl)NCCO`
A. inactive

Q. Record request — test call for `O=C(CCCOc1ccc(Cl)cc1Cl)N1CCCC1`
A. inactive
